Assay: Clearance in male CD-1 mouse at 5 mg/kg, iv measured for 480 mins by LC-MS/MS analysis
Assay type: ADME, organism-based
Conditions: in vivo
MEASURED_PARAMETER: clearance

[ask] Tell me its clearance given C#C[C@H](O)C#Cc1ccc(CCCCCCCC)cc1 as the entry.
[reply] 108 mL/min/kg

---

Test: Half life in female CD-1 mouse at 5 mg/kg, po measured for 480 mins by LC-MS/MS analysis
Type: ADME, organism-based
Details: in vivo
MEASURED_PARAMETER: half-life (min)
Numbers only, in min.

[ask] Using known records, supply half-life for C#C[C@H](O)C#Cc1ccc(CCCCCCCC)cc1
[reply] 33
